Tested on: upland rice (Oryza sp., var. Tebonnet, RICE)
assay method text: Pre-emerge test, crop safety
Type: in vivo
condition notes: crop damage, pre-emerge, rate 63 g ai/ha, phytotoxicity rating 0-100 at 14 days after application
observation type: Pre-emerge Herbicidal Activity RICE
One number for each entry.

Would you please look over these solved cases?
COc1cccc(COC(=O)Nc2c(C)c(Cl)cc(F)c2-n2c(=O)cc(C(F)(F)F)n(C)c2=O)c1 = 65
COc1c(Cl)cc(F)c(N2C(=O)C3=C(CCCC3)C2=O)c1NC(=O)C=Cc1ccccc1 = 0
Cc1c(Cl)cc(F)c(-n2c(=O)cc(C(F)(F)F)n(C)c2=O)c1NC(=O)SCc1ccccc1 = 20
C#CCOc1c(Cl)cc(F)c(N2C(=O)C3=C(CCCC3)C2=O)c1N = 0
COc1c(Cl)cc(F)c(-n2nnn(CCCF)c2=O)c1NC(=O)COCc1ccccc1 = 30

Report Pre-emerge Herbicidal Activity RICE for each item below.
1. Cc1cccc(C)c1OC(=O)Nc1c(C)c(Cl)cc(F)c1-n1c(=O)cc(C(F)(F)F)n(C)c1=O
2. COc1c(Cl)cc(F)c(-n2ncc(C(F)(F)F)cc2=O)c1NC(=O)c1ccc2ccccc2c1
3. O=C(Nc1cc(Cl)ccc1-n1c(=O)n2n(c1=O)CCCC2)c1ccc2ccccc2c1

Resp:
[0, 0, 30]

Report Pre-emerge Herbicidal Activity RICE for each item below.
1. COc1c(Cl)cc(F)c(-n2c(=O)n3n(c2=O)CCCC3)c1NC(C)=O
2. Cc1c(Cl)cc(F)c(-n2c(=O)cc(C(F)(F)F)n(C)c2=O)c1NC(=O)OCc1ccc([N+](=O)[O-])cc1
3. COc1cccc(OC)c1OC(=O)Nc1c(C)c(Cl)cc(F)c1-n1c(=O)cc(C(F)(F)F)n(C)c1=O
4. O=C(Nc1cc(Cl)ccc1N1C(=O)C2=C(CCCC2)C1=O)c1ccc2ccccc2c1
5. CC(C)Oc1c(Cl)cc(Cl)c(-n2nnn(CCCF)c2=O)c1N
6. COc1c(Cl)cc(F)c(-n2nnn(CCCF)c2=O)c1N
7. Cc1ccc(COC(=O)Nc2c(C)c(Cl)cc(F)c2-n2c(=O)cc(C(F)(F)F)n(C)c2=O)cc1

Resp:
1: 25; 2: 30; 3: 0; 4: 20; 5: 0; 6: 20; 7: 60

Report Pre-emerge Herbicidal Activity RICE for each item below.
1. Nc1c(O)c(Cl)cc(F)c1N1C(=O)C2CCCCN2C1=S (single isomer, unassigned)
2. CC(C)Oc1c(Cl)cc(F)c(N2C(=O)C3=C(CCCC3)C2=O)c1NC(=O)c1ccc(F)cc1F
3. Cc1nn(-c2c(Cl)cc(Cl)cc2NC(=O)c2ccc(F)cc2F)c(=O)n1C(F)F
4. COc1c(Cl)cc(F)c(N2C(=O)C3=C(CCCC3)C2=O)c1N
5. C=Cc1ccc(C(=O)Nc2c(OC)c(Cl)cc(F)c2N2C(=O)C3=C(CCCC3)C2=O)cc1
6. Cc1c(Cl)cc(F)c(-n2c(=O)cc(C(F)(F)F)n(C)c2=O)c1NC(=O)OCCc1ccccc1

Resp:
1. 50
2. 10
3. 0
4. 0
5. 5
6. 20

Report Pre-emerge Herbicidal Activity RICE for each item below.
1. Cc1ccccc1COC(=O)Nc1c(C)c(Cl)cc(F)c1-n1c(=O)cc(C(F)(F)F)n(C)c1=O
2. Cc1c(Cl)cc(F)c(-n2c(=O)cc(C(F)(F)F)n(C)c2=O)c1NC(=O)OCc1ccco1
3. Cc1nn(-c2c(F)cc(Cl)cc2NC(=O)c2ccc(F)cc2F)c(=O)n1C(F)F
4. COc1c(Cl)cc(F)c(-n2ncc(C(F)(F)F)c(C)c2=O)c1NC(=O)c1ccc2ccccc2c1
5. C#CCOc1c(Cl)cc(F)c(-n2nnn(CCCF)c2=O)c1N

Resp:
50
40
0
0
20

Report Pre-emerge Herbicidal Activity RICE for each item below.
1. COc1c(Cl)cc(F)c(-n2nnn(CCCF)c2=O)c1NC(=O)c1ccc2ccccc2c1
2. Cc1cc(C)c(COC(=O)Nc2c(C)c(Cl)cc(F)c2-n2c(=O)cc(C(F)(F)F)n(C)c2=O)c(C)c1
3. Cc1cccc(COC(=O)Nc2c(C)c(Cl)cc(F)c2-n2c(=O)cc(C(F)(F)F)n(C)c2=O)c1
4. Nc1c(OC2CCCC2)c(Cl)cc(F)c1N1C(=O)C2=C(CCCC2)C1=O

Resp:
[15, 10, 50, 0]

Report Pre-emerge Herbicidal Activity RICE for each item below.
1. CCC(=O)Nc1c(Cl)cc(Cl)c(-n2nc(C)n(C(F)F)c2=O)c1N
2. C#CCOc1c(Cl)cc(Cl)c(-n2nnn(CCCF)c2=O)c1N
3. COc1c(Cl)cc(F)c(-n2nc(C)n(C(F)F)c2=O)c1NC(=O)c1ccc(F)cc1F

Resp:
1: 0; 2: 0; 3: 90
